- EXPERIMENTAL_PROTOCOL: LogD determinations
- Type: physicochemical
- CONDITION_SUMMARY: pH 7.4; Ion-count method
Could you please mark MET for values of LogD pH 7.4 below 1 and NOT MET for values at or above it?

[[record]]
input_smiles = "CO[C@@H]1CN(C(=O)[C@H](CC(C)(C)C)NC(=O)c2ccc(N3CCN(C(C)C)CC3)cc2)[C@@H]2C(=O)CO[C@@H]21"
assigned_class = "NOT MET"

[[record]]
input_smiles = "COCCN1CCN(c2ccc(C(=O)N[C@@H](CC(C)C)C(=O)N3C[C@H](O)[C@H]4OCC(=O)[C@H]43)cc2)CC1"
assigned_class = "MET"

[[record]]
input_smiles = "CCCN1CCN(c2ccc(C(=O)N[C@@H](CC(C)C)C(=O)N3C[C@H](OC)[C@H]4OCC(=O)[C@H]43)cc2)CC1"
assigned_class = "NOT MET"

[[record]]
input_smiles = "COCCN1CCN(c2ccc(C(=O)N[C@@H](CC(C)C)C(=O)N3C[C@@H](O)[C@H]4OCC(=O)[C@H]43)cc2)CC1"
assigned_class = "MET"

[[record]]
input_smiles = "CCCN1CCN(c2ccc(C(=O)N[C@@H](CC(C)C)C(=O)N3C[C@@H](OC)[C@H]4OCC(=O)[C@H]43)cc2)CC1"
assigned_class = "NOT MET"


Consider the compound "CCCN1CCN(c2ccc(C(=O)N[C@@H](CC(C)(C)C)C(=O)N3C[C@@H](OC)[C@H]4OCC(=O)[C@H]43)cc2)CC1" . Is its LogD pH 7.4 strictly less than 1? NOT MET

Consider the compound "CCN1CCN(c2ccc(C(=O)N[C@@H](CC(C)C)C(=O)N3C[C@@H](OC)[C@H]4OCC(=O)[C@H]43)cc2)CC1" . Is its LogD pH 7.4 strictly less than 1? MET

Consider the compound "COCCN1CCN(c2ccc(C(=O)N[C@@H](CC(C)C)C(=O)N3C[C@@H](N)[C@H]4OCC(=O)[C@H]43)cc2)CC1" . Is its LogD pH 7.4 strictly less than 1? MET

Consider the compound "CO[C@H]1CN(C(=O)[C@H](CC(C)C)NC(=O)c2ccc(N3CCN(C)CC3)cc2)[C@@H]2C(=O)CO[C@H]12" . Is its LogD pH 7.4 strictly less than 1? NOT MET

Consider the compound "COCCN1CCN(c2ccc(C(=O)N[C@@H](CC(C)C)C(=O)N3C[C@@H](OC)[C@H]4OCC(=O)[C@H]43)cc2)CC1" . Is its LogD pH 7.4 strictly less than 1? MET

Consider the compound "CCCN1CCN(c2ccc(C(=O)N[C@@H](CC(C)(C)C)C(=O)N3C[C@H](OC)[C@H]4OCC(=O)[C@H]43)cc2)CC1" . Is its LogD pH 7.4 strictly less than 1? NOT MET

Consider the compound "CO[C@@H]1CN(C(=O)[C@H](CC(C)(C)C)NC(=O)c2ccc(N3CCN(C)CC3)cc2)[C@@H]2C(=O)CO[C@@H]21" . Is its LogD pH 7.4 strictly less than 1? MET

Consider the compound "CCN1CCN(c2ccc(C(=O)N[C@@H](CC(C)(C)C)C(=O)N3C[C@H](OC)[C@H]4OCC(=O)[C@H]43)cc2)CC1" . Is its LogD pH 7.4 strictly less than 1? NOT MET
